target: T1, human IgG1 (human, UniProt P01857-1 1-330 = IgG part); assay: fluorescence anisotropy; pH 5.7, 0.05 M NaCl
T1 construct: Calbiochem; human plasma IgG1 in anisotropy studies, myeloma-derived (cat. 400120) in batch/column studies; also called hIgG1
T1 sequence (P01857 other isoform, or with tags, fused parts or gaps): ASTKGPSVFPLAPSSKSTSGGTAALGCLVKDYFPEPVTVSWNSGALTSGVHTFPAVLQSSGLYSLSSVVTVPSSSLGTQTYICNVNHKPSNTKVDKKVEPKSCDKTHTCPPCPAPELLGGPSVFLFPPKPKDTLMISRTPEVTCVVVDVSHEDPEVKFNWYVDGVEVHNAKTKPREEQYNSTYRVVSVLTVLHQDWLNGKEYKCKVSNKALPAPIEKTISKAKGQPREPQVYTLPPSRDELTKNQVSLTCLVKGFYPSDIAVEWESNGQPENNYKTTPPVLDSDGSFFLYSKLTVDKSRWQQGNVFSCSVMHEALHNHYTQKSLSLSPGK
Positions of bridges follow the written chain, without caps; N, C: chain ends.
outcome.measure: Kd (nM)
Value expressed in nM; do not type the unit.

Input: State its Kd for this binder: Ac-GDDHMCVYTTWGELIWCDNHEPGPEGGGK-NH2 (disulfide 6-17 (inferred), Synthetic disulfide-cyclised peptide) [DX249]
Output: 300
